Assign log10 of IC50 to each entry below.
- measurement target: Beta Secretase enzyme (BACE) (Homo sapiens)
- Sequence (P56817 46-501, species assumed): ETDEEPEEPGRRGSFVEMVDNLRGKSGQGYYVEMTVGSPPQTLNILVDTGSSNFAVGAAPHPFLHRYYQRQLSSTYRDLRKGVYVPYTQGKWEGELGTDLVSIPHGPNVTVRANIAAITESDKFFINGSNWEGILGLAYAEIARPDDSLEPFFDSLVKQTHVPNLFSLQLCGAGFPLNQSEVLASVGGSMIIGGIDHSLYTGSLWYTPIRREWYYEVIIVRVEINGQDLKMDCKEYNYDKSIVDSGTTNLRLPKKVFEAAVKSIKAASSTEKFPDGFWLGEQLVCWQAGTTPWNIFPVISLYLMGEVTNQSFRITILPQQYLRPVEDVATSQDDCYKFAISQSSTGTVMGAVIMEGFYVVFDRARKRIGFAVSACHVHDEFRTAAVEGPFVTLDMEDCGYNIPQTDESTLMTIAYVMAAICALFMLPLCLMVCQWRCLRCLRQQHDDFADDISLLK
- test summary: In vitro enzymatic BACE FRET (fluorescence resonance energy transfer) assay
- Format: biochemical
- condition notes: average IC50, enzyme assay; read-out: BACE 1 FRET assay
Note the log scale: values are log10 of IC50 expressed in nM.

compound	measurement target	log10 of IC50
CC1(C)C[C@@H](c2cnc3c(c2)[C@]2(COC(N)=N2)c2cc(-c4cncc(Cl)c4)ccc2O3)CCO1 [Example 476]	Beta Secretase enzyme (BACE) (Homo sapiens)	0.11
N#Cc1cncc(-c2ccc3c(c2)[C@@]2(COC(N)=N2)c2cc(OCC4CCOCC4)cc(F)c2O3)c1 [Example 553]	Beta Secretase enzyme (BACE) (Homo sapiens)	0.38
CC1(C#Cc2cc3c(cn2)Oc2ccc(-c4cccnc4F)cc2[C@@]32COC(N)=N2)COC1 [Example 405]	Beta Secretase enzyme (BACE) (Homo sapiens)	0.15
NC1=N[C@@]2(CO1)c1cc(-c3cccnc3F)ccc1Oc1ncc([C@@H]3CCCOC3)cc12 [Example 174]	Beta Secretase enzyme (BACE) (Homo sapiens)	1.08

For each listed entry, give its log10 of IC50.
1. NC1=N[C@@]2(CO1)c1cc(-c3cccnc3)ccc1Oc1c2cc(-c2cccnc2)nc1F [Example 494]
2. NC1=N[C@@]2(CO1)c1cc(-c3cncnc3)c(F)cc1Oc1c(F)cc(C3=CCOCC3)cc12 [Example 1038]

-0.30
-0.40

For each listed entry, give its log10 of IC50.
1. N#Cc1ccncc1-c1ccc2c(c1)[C@@]1(COC(N)=N1)c1cc(Cl)ncc1O2 [Example 655]
2. Cc1ccc(-c2cnc3c(c2)[C@]2(CSC(N)=N2)c2cc(-c4cccnc4)ccc2O3)cn1 [Example 958]
3. NC1=N[C@@]2(CO1)c1cc(-c3ccc(F)nc3)ccc1Oc1c(F)cc(-c3ncccn3)cc12 [Example 289]

1. 2.78
2. 0.18
3. 0.40

For each listed entry, give its log10 of IC50.
1. NC1=N[C@@]2(CO1)c1cc(-c3cccnc3F)ccc1Oc1cnc(C3CCCCC3)cc12 [Example 388]
2. Cn1cc(-c2cc3c(cc2F)Oc2ccc(-c4cccc(Cl)c4)cc2[C@@]32COC(N)=N2)cn1 [Example 313]
3. NC1=N[C@@]2(CO1)c1cc(-c3cccnc3F)ccc1Oc1c(F)cc(N3CCC(F)(F)C3)cc12 [Example 271]

0.46
0.26
-0.30

For each listed entry, give its log10 of IC50.
1. CC1(C)CCN(c2cnc3c(c2)[C@]2(COC(N)=N2)c2cc(C#CC4CC4)ccc2O3)C1 [Example 182]
2. CC(C)(C#N)COc1ccc2c(c1)[C@@]1(COC(N)=N1)c1cc(Br)cc(F)c1O2 [Example 442]
3. N#Cc1cccc(-c2ccc3c(c2)C2(COC(N)=N2)c2cc(C4CCOCC4)nc(F)c2O3)c1 (stereo not drawn) [Example 751]
4. N#Cc1cccc(-c2ccc3c(c2)[C@@]2(COC(N)=N2)c2cc(C4=CCCOC4)nc(F)c2O3)c1 [Example 742]
5. NC1=N[C@@]2(CO1)c1cc(-c3cccnc3F)ccc1Oc1c(F)cc(N3CC4(CCCO4)C3)cc12 [Example 855]

[0.49, 2.18, 0.51, -0.40, -0.15]

For each listed entry, give its log10 of IC50.
1. CC(C)(C)COc1ccc2c(c1)[C@@]1(COC(N)=N1)c1cc(C3=CC(C)(C)OCC3)cnc1O2 [Example 506]
2. NC1=N[C@@]2(CO1)c1cc(-c3ccc(F)nc3)ccc1Oc1c(F)cc(C3CCOCC3)cc12 [Example 301]
3. COc1ccc2c(c1)[C@@]1(COC(N)=N1)c1cc(C3(O)CCOCC3)cc(F)c1O2 [Example 938]
4. CC#Cc1cncc(-c2ccc3c(c2)[C@@]2(COC(N)=N2)c2cc(-c4ccnc(C)c4)nc(F)c2O3)c1 [Example 740]
5. COc1ncc(-c2ccc3c(c2)[C@@]2(COC(N)=N2)c2cc(N4CC[C@@H](F)C4)ncc2O3)cn1 [Example 417]

1. 0.76
2. 0.68
3. 3.65
4. -0.10
5. 1.93

For each listed entry, give its log10 of IC50.
1. NC1=N[C@@]2(CS1)c1cc(-c3cccnc3F)ccc1Oc1c(F)cc(N3CCOCC3)cc12 [Example 1069]
2. NC1=N[C@@]2(CO1)c1cc(-c3cccnc3F)ccc1Oc1c2cc(N2CCC(F)(F)C2)nc1F [Example 918]

1. -0.22
2. -0.70
